- target_of_assay: Metabotropic glutamate receptor 2 (Homo sapiens, UniProt Q14416)
- Sequence (Q14416 whole entry): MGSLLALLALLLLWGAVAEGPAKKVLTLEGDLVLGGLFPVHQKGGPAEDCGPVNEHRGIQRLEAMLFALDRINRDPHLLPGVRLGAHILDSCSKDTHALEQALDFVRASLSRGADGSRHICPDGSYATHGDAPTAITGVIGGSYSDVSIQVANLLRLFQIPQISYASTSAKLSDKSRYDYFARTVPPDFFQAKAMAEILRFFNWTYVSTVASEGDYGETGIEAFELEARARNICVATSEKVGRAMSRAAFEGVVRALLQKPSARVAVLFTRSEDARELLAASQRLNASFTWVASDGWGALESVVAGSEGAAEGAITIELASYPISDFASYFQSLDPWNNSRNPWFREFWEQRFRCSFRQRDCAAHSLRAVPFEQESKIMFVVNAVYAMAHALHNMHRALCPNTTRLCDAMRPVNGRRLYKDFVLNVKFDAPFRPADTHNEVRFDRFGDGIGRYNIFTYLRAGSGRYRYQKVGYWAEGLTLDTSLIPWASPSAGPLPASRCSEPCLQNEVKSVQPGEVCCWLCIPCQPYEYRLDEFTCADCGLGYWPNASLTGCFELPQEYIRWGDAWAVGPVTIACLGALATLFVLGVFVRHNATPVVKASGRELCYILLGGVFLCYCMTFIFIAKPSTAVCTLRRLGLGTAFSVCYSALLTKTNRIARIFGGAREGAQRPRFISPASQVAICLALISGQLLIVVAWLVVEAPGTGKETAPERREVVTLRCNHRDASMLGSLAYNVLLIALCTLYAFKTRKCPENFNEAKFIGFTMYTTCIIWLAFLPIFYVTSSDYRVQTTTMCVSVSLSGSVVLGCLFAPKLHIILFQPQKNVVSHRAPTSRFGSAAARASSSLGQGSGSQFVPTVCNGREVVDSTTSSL
- method: Displacement of [3H]-JNJ46281222 from human metabotropic glutamate receptor 2 expressed in CHOK1 cell membranes after 60 mins by microbeta counting analysis
property: pKi
# log scale: pKi equals minus log10 of the concentration in mol/L

[[record]]
smiles_code = "CC(C)Nc1ccc(-c2ccn3c(CC4CC4)nnc3c2C(F)(F)F)cc1F"
value_observed = 8.05


QUERY: Can you look up pKi on Metabotropic glutamate receptor 2 (Homo sapiens, UniProt Q14416) for `Cc1ccc(Oc2ccc(-c3ccn4c(CC(F)(F)F)nnc4c3Cl)cc2F)c(C)n1` ?
RESULT: 8.10

QUERY: Can you look up pKi on Metabotropic glutamate receptor 2 (Homo sapiens, UniProt Q14416) for `COc1ccc(CNc2ccc(-c3ccn4c(CC5CC5)nnc4c3C(F)(F)F)cc2)cn1` ?
RESULT: 8.50

QUERY: Can you look up pKi on Metabotropic glutamate receptor 2 (Homo sapiens, UniProt Q14416) for `Clc1cc(-c2ccn3c(CC4CC4)nnc3c2Cl)ccc1NC1CC1` ?
RESULT: 8.17

QUERY: Can you look up pKi on Metabotropic glutamate receptor 2 (Homo sapiens, UniProt Q14416) for `Cc1ccc(Oc2ccc(-c3ccn4c(CC5CC5)nnc4c3Cl)cc2Cl)c(C)n1` ?
RESULT: 8.22

QUERY: Can you look up pKi on Metabotropic glutamate receptor 2 (Homo sapiens, UniProt Q14416) for `O[C@H]1CC[C@H](Oc2ccc(-c3ccn4c(CC5CC5)nnc4c3C(F)(F)F)cc2Cl)CC1` ?
RESULT: 8.72
